The reported numbers originate from patent US20210347873A1.

- tested_target: T1, biotinylated hBLyS-ECD (human, UniProt Q9Y275 134-285, biotinylated with Biotin-X-X-NHS (molar ratio 7:1); sites not stated)
- T1 construct: also called biotinylated immunogen; biotinylated hBLvS-ECD
- T1 sequence (Q9Y275 134-285): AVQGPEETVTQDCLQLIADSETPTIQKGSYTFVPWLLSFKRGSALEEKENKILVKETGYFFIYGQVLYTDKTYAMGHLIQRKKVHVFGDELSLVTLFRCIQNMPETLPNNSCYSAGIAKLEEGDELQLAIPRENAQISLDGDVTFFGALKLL
- test_description: ELISA on captured biotinylated hBLyS-ECD; antibody 0.107 nM
property_label: OD450 nm (OD450 nm)
One number for each entry, in OD450 nm.

Previously resolved entries follow.
binder	scale_unit	OD450 nm
h97A3C2H4-9 (antibody, V domains shown, Humanized antibody; VH3-7/JH6 CDR-grafted with A93T, G44R; also called humanized BLyS antibody h97A3C2H4 variant 9 (VH.1b / Vk.1d)) VH: EVQLVESGGGLVQPGGSLRLSCAASGFTFSTYTMSWVRQAPGKRLEWVAYISYGGGSTSYPDTVKGRFTISRDNAKNSLYLQMNSLRAEDTAVYYCTRHVTVVENSMDYWGQGTTVTVSS VL: DILLTQSPDFQSVTPKEKVTITCRASQSIGTSIHWYQQKTDQSPKLLIKYVSESFSGTPSRFSGSGSGTDFTLTINSLEAEDAATYYCQQTHSWPWTFGGGTKVEIK	OD450 nm	1.02
h8E7D9C7F5-1 (antibody, V domains shown, Humanized antibody; also called humanized BLyS antibody h8E7D9C7F5 variant 1 (VH.1 / Vk.1)) VH: EVQLVQSGAEVKKPGASVKVSCKASGYTFTSYGISWVRQAPGQGLEWMGEIYPRSGNTYYNEKFKGRVTMTTDTSTSTAYMELRSLRSDDTAVYYCARSGPITTLVATDYGMDYWGQGTTVTVSS VL: DIVMTQSPDSLAVSLGERATINCRASKSVSTSSYSYMHWYQQKPGQPPKLLIKFASNLESGVPDRFSGSGSGTDFTLTISSLQAEDVAVYYCQHSREFPYTFGGGTKVEIK	OD450 nm	1.35
c8E7D9C7F5 (antibody, V domains shown, also called chimeric antibody c8E7D9C7F5) VH: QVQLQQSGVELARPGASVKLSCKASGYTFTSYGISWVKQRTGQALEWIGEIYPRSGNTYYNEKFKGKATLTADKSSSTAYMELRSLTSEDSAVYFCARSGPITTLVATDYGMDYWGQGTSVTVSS VL: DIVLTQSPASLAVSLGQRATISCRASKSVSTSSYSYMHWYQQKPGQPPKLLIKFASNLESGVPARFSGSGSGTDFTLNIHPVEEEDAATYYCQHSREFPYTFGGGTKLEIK	OD450 nm	1.28

Query: Input c97A3C2H4 (antibody, V domains shown, also called chimeric antibody c97A3C2H4) VH: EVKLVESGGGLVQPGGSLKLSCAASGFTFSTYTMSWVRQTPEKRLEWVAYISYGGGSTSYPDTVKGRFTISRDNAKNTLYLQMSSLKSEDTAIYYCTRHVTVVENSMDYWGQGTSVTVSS VL: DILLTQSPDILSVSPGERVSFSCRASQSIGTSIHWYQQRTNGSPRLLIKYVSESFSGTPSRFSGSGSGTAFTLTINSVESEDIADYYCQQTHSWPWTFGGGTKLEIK , output reported OD450 nm.
Reply: 1.19
